Taken from patent US12435072B2.

Biological target: CYP2B6 (Homo sapiens, UniProt P20813)
Construct: incubated with human liver microsomes; tissue Eurofins ITEMG232; host or cells: human liver microsomes
Sequence (P20813 whole entry): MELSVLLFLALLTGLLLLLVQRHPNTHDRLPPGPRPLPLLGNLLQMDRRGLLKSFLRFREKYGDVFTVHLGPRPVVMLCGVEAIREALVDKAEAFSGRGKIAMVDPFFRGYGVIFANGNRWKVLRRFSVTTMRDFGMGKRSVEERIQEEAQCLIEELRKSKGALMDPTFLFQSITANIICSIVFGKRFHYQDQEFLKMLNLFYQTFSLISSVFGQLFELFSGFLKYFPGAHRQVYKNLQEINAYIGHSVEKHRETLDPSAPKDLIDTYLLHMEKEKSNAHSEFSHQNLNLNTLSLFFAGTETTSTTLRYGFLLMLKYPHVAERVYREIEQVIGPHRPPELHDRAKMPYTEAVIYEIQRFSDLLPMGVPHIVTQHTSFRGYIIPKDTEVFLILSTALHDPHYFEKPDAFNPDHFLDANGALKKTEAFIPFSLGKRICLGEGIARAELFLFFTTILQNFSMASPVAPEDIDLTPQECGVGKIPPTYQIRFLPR
Assay: CYP inhibition in human liver microsomes, CYP2B6
Format: in vitro ADME
Details: probe bupropion, substrate bupropion, read-out: CYP2B6 Inh %
Procedure: The following substrates were used: CYP1A phenacetin, CYP2B6 bupropion, CYP2C8 paclitaxel and amodiaquine, CYP2C9 diclofenac, CYP2C19 omeprazole, CYP2D6 dextromethorphan, CYP3A midazolam and testosterone. At the end of the incubation, the formation of metabolite was monitored by HPLC-MS/MS as the peak area response.
Returns one of yes (1) or no (0); yes (1) when inhibition at 10 µM is >= 20%.

>  <Compound>
Cc1nccn1Cc1ccc(-c2cc(CC(C)C)sc2S(=O)(=O)NC(=O)NCCC(F)(F)F)cc1F [Example 14]

>  <Cat>
yes (1)

$$$$
>  <Compound>
CCc1nccn1Cc1ccc(-c2cc(CC(C)C)sc2S(=O)(=O)NC(=O)NCc2ccc(F)cc2)cc1F.O=C(O)C(F)(F)F [Example 32, trifluoroacetic acid]

>  <Cat>
yes (1)

$$$$
>  <Compound>
Cc1cn(Cc2ccc(-c3cc(CC(C)C)sc3S(=O)(=O)NC(=O)NCc3ccccc3)cc2)c(C)n1 [Example 10]

>  <Cat>
no (0)

$$$$
>  <Compound>
Cc1nccn1Cc1ccc(-c2cc(CC(C)C)sc2S(=O)(=O)NC(=O)NCC(C)C)cc1F.O=C(O)C(F)(F)F [Example 39, trifluoroacetic acid]

>  <Cat>
yes (1)

$$$$
>  <Compound>
Cc1nccn1Cc1ccc(-c2cc(CC(C)C)sc2S(=O)(=O)NC(=O)NCCC(F)(F)F)cc1 [Example 3]

>  <Cat>
no (0)

$$$$
>  <Compound>
Cc1nccn1Cc1ccc(-c2cc(CC(C)C)sc2S(=O)(=O)NC(=O)NCc2ccc(F)c(F)c2)cc1F.O=C(O)C(F)(F)F [Example 34, trifluoroacetic acid]

>  <Cat>
yes (1)

$$$$
>  <Compound>
Cc1nccn1Cc1ccc(-c2cc(CC(C)C)sc2S(=O)(=O)NC(=O)NCc2ccccn2)cc1F [Example 13]

>  <Cat>
no (0)

$$$$
>  <Compound>
CCc1nccn1Cc1ccc(-c2cc(CC(C)C)sc2S(=O)(=O)NC(=O)NCc2ccccn2)cc1 [Example 9]

>  <Cat>
no (0)

$$$$
>  <Compound>
CCc1nccn1Cc1ccc(-c2cc(CC(C)C)sc2S(=O)(=O)NC(=O)NCCC(F)(F)F)cc1F.O=C(O)C(F)(F)F [Example 30, trifluoroacetic acid]

>  <Cat>
yes (1)

$$$$
>  <Compound>
CCc1nccn1Cc1ccc(-c2cc(CC(C)C)sc2S(=O)(=O)NC(=O)NCCOC)cc1 [Example 7]

>  <Cat>
no (0)

$$$$
>  <Compound>
Cc1nccn1Cc1ccc(-c2cc(CC(C)C)sc2S(=O)(=O)NC(=O)NCc2cccs2)cc1F.O=C(O)C(F)(F)F [Example 35, trifluoroacetic acid]

>  <Cat>
yes (1)

$$$$
>  <Compound>
Cc1nccn1Cc1ccc(-c2cc(CC(C)C)sc2S(=O)(=O)NC(=O)NCc2cc(Cl)ccn2)cc1F.O=C(O)C(F)(F)F [Example 38, trifluoroacetic acid]

>  <Cat>
yes (1)

$$$$
>  <Compound>
Cc1cn(Cc2ccc(-c3cc(CC(C)C)sc3S(=O)(=O)NC(=O)NCc3ccccn3)cc2)c(C)n1 [Example 11]

>  <Cat>
no (0)

$$$$
